// data source = ChEMBL document CHEMBL1149655

# Experimental target: Progesterone receptor (Homo sapiens)
# Sequence (P06401 whole entry): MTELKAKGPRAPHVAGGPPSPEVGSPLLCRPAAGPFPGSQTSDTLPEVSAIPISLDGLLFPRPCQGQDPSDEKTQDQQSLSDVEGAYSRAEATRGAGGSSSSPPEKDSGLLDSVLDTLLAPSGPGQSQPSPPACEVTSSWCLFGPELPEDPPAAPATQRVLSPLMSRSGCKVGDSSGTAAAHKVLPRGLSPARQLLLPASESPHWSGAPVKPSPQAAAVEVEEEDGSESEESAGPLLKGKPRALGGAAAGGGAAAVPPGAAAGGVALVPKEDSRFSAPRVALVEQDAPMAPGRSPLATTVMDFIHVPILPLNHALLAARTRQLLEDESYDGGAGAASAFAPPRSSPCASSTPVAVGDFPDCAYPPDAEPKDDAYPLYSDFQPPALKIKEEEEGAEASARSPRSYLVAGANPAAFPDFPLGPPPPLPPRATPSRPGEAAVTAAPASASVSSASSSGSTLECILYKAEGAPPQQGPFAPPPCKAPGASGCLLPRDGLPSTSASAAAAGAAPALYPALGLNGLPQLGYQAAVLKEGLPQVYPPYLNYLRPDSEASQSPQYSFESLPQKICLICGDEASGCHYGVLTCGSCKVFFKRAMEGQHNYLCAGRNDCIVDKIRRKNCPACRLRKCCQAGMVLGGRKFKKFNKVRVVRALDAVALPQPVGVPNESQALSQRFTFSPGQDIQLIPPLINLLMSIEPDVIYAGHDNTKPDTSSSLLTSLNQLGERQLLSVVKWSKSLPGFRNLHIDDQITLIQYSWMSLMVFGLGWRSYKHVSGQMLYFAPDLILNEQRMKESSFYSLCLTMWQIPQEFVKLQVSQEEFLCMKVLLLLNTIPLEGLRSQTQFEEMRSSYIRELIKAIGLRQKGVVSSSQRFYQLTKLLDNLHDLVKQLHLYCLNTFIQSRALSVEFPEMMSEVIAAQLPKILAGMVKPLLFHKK
pIC50: −log10 of the molar value.
Measurement type: pIC50

What pIC50 value was documented for this compound, Nc1c(C(=O)NCC(O)(CC2(c3cc(F)ccc3Cl)CCC2)C(F)(F)F)cnn1-c1ccccc1 (stereo in doubt; 24E1) ?
< 6.00

----------
# Experimental target: UniProt P04150
# Sequence (P04150 whole entry): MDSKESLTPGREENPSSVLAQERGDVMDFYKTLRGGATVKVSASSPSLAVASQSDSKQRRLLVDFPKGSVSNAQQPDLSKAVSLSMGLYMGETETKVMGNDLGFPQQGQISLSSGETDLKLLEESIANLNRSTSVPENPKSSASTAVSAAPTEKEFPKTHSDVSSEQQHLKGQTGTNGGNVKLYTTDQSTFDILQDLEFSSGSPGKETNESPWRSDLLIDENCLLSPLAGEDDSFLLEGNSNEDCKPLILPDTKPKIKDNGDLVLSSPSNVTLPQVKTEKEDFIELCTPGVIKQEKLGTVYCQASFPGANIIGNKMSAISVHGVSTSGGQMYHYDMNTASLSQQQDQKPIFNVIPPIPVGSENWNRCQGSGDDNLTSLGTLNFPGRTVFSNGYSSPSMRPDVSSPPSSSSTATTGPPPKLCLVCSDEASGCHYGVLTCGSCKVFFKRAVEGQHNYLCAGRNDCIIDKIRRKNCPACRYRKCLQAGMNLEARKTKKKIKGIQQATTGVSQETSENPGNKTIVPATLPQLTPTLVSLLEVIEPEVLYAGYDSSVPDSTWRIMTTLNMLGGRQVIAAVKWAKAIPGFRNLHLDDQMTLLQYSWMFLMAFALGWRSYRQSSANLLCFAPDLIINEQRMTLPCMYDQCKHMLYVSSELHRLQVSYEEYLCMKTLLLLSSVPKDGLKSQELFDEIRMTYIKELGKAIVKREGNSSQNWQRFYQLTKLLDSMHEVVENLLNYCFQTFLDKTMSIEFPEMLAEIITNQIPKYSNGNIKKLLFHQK
# Assay explanation: Agonist activity at glucocorticoid receptor in human A549 cells by MMTV transactivation assay
Measurement type: pEC50
Just the number, please; pEC50 means minus log10 of the concentration in mol/L.

What pEC50 value was documented for this molecule, CCC1(CC(O)(CNC(=O)c2cnn(-c3ccc(F)cc3)c2N)C(F)(F)F)CCCc2ccccc21 (stereo in doubt; 21D1E2) ?
7.97

----------
Collected pIC50 values appear next to each entry.
Target chain: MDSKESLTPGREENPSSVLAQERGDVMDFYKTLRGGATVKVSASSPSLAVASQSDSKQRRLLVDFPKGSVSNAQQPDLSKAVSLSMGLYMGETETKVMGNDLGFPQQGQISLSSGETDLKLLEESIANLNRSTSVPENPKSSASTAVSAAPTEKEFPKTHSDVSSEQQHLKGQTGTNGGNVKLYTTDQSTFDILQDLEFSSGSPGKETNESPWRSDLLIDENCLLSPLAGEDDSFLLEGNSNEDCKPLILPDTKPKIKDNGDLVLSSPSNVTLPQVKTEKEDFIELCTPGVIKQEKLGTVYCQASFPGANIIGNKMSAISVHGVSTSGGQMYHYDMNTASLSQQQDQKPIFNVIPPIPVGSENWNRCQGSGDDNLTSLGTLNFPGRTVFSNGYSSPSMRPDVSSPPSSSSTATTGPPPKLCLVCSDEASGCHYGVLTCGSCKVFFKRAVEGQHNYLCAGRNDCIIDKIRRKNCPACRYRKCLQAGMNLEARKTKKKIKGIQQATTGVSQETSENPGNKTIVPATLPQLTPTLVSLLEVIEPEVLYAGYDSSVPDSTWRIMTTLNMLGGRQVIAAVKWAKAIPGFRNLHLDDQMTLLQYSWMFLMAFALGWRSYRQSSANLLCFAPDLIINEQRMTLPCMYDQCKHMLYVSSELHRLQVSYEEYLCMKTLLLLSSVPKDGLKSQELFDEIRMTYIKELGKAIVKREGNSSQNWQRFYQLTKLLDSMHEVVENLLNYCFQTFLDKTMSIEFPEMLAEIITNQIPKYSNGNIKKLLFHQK
Just the number, please; pIC50 means minus log10 of the concentration in mol/L.

CC1(CC(O)(CNC(=O)c2cnn(-c3ccccc3)c2N)C(F)(F)F)CCCc2ccccc21 (stereo in doubt; 19D1E1): 8.24

What pIC50 value was documented for this compound, Cc1c(S(=O)(=O)NCC(O)(CC2(C)CCCc3ccccc32)C(F)(F)F)cnn1-c1ccccc1 (stereo in doubt; 17D2E1) ?
7.29

And what about the compound Nc1c(C(=O)NCC(O)(CC2(C3CCCC3)CCCc3ccccc32)C(F)(F)F)cnn1-c1ccc(F)cc1F (stereo in doubt; 23D1E2) ?
7.68

And what about the compound Nc1c(C(=O)NCC(O)(CC2(C3CCCC3)CCCc3ccccc32)C(F)(F)F)cnn1-c1ccc(F)cc1F (stereo in doubt; 23D1E1) ?
8.02

----------
# Experimental target: UniProt:P04150
Measurement type: IC50 (nM)
Quick reminder: number only, in nM, skip the unit.

Nc1c(C(=O)NCC(O)(CC2(C3CCCC3)CCCc3ccccc32)C(F)(F)F)cnn1-c1ccc(F)cc1F (stereo in doubt; 23D1E1): 275

What IC50 value was documented for this molecule, Cc1c(C(=O)NCC(O)(CC2(C)CCCc3ccccc32)C(F)(F)F)cnn1-c1ccccc1 (stereo in doubt; 18D1E1) ?
933

And what about the molecule Cc1c(S(=O)(=O)NCC(O)(CC2(C)CCCc3ccccc32)C(F)(F)F)cnn1-c1ccccc1 (stereo in doubt; 17D2E2) ?
309

And what about the molecule Cc1c(C(=O)NCC(O)(CC2(C)CCCc3ccccc32)C(F)(F)F)cnn1-c1ccccc1 (stereo in doubt; 18D1) ?
603

----------
# Experimental target: Glucocorticoid receptor (Homo sapiens, UniProt P04150)
# Assay explanation: Agonist activity at glucocorticoid receptor in human A549 cells by MMTV transactivation assay
Measurement type: pEC50
Just the number, please; pEC50 means minus log10 of the concentration in mol/L.

Example entries and their recorded answers appear below.
CC1(CC(O)(CNC(=O)c2cnn(-c3ccccc3)c2N)C(F)(F)F)CCCc2ccccc21 (stereo in doubt; 19D1E2): 7.74
CCC1(CC(O)(CNC(=O)c2cnn(-c3ccc(F)cc3F)c2N)C(F)(F)F)CCCc2ccccc21 (stereo in doubt; 22D1E1): 7.84
Nc1c(C(=O)NCC(O)(CC2(c3cc(F)ccc3Cl)CCC2)C(F)(F)F)cnn1-c1ccccc1 (stereo in doubt; 24E1): 7.82
Nc1c(C(=O)NCC(O)(CC2(C3CCCC3)CCCc3ccccc32)C(F)(F)F)cnn1-c1ccc(F)cc1F (stereo in doubt; 23D1E1): 7.02

Now for another entry.
What pEC50 value was documented for this compound, CCC1(CC(O)(CNC(=O)c2cnn(-c3ccc(F)cc3F)c2N)C(F)(F)F)CCCc2ccccc21 (stereo in doubt; 22D1E2) ?
7.91

----------
# Experimental target: Glucocorticoid receptor (Homo sapiens, UniProt P04150)
Collected pIC50 values appear next to each entry.
Just the number, please; pIC50 means minus log10 of the concentration in mol/L.

Nc1c(C(=O)NCC(O)(CC2(c3cc(F)ccc3Cl)CCC2)C(F)(F)F)cnn1-c1ccccc1 (stereo in doubt; 24E2): 8.32
Cc1c(S(=O)(=O)NCC(O)(CC2(C)CCCc3ccccc32)C(F)(F)F)cnn1-c1ccccc1 (stereo in doubt; 17D1): 6.80
Cc1c(S(=O)(=O)NCC(O)(CC2(C)CCCc3ccccc32)C(F)(F)F)cnn1-c1ccccc1 (stereo in doubt; 17D2): 7.46
Nc1c(C(=O)NCC(O)(CC2(c3cc(F)ccc3Cl)CCC2)C(F)(F)F)cnn1-c1ccccc1 (stereo in doubt; 24E1): 8.37
CCC1(CC(O)(CNC(=O)c2cnn(-c3ccc(F)cc3F)c2N)C(F)(F)F)CCCc2ccccc21 (stereo in doubt; 22D1E2): 8.33
Cc1c(C(=O)NCC(O)(CC2(C)CCCc3ccccc32)C(F)(F)F)cnn1-c1ccccc1 (stereo in doubt; 18D1): 8.12
CCC1(CC(O)(CNC(=O)c2cnn(-c3ccccc3)c2N)C(F)(F)F)CCCc2ccccc21 (stereo not drawn): 8.13
Cc1c(C(=O)NCC(O)(CC2(C)CCCc3ccccc32)C(F)(F)F)cnn1-c1ccccc1 (stereo in doubt; 18D1E1): 8.03

Provide value of pIC50 for this record tested with Glucocorticoid receptor (Homo sapiens, UniProt P04150): CCC1(CC(O)(CNC(=O)c2cnn(-c3ccc(F)cc3)c2N)C(F)(F)F)CCCc2ccccc21 (stereo in doubt; 21D1E2)
8.01
